- Read-out: Fatty Acid-Binding Protein 1 (FABP1), FABP1 (gene 2168)
- Assay overview: LTEA_HepaRG_FABP1: Life Technologies and Expression Analysis (LTEA) Assay for Fatty Acid-Binding Protein 1 (FABP1) using HepaRG (AID 2283494)
- Settings: mRNA level, 48 h; actives raise or lower the signal
The source made the active and inactive calls. The calls were made as follows: active = hit-call score of the fitted dose curve at least 0.9, where 1 is the maximum; inactive = score below 0.9.
Result category, one only: active, inactive

Consider the following illustrative entries.
>  <Line notation>
NC(=O)N1c2ccccc2C=Cc2ccccc21

>  <Category>
inactive

$$$$
>  <Line notation>
c1ccc2c(c1)-c1cccc3c1c-2cc1ccccc13

>  <Category>
active

$$$$
>  <Line notation>
Cn1cc[nH]c1=S

>  <Category>
inactive

$$$$
>  <Line notation>
CCn1nc(C)c2c1C(=O)NCC(c1ccc(O)cc1)=N2

>  <Category>
inactive

$$$$
>  <Line notation>
Nc1ccn([C@@H]2O[C@H](CO)[C@@H](O)[C@@H]2O)c(=O)n1

>  <Category>
inactive

$$$$
>  <Line notation>
NC(=O)N(O)[C@@H]1COc2cc(OCc3ccccc3)ccc21

>  <Category>
inactive

$$$$

Called result for `O=C(O)c1ccc2c(c1)nc(C(=O)NC1CCN(C3CC3)CC1)n2Cc1cc(-c2ccc(Cl)s2)on1`
inactive

And the next one, `CCCCN1C(=O)[C@@H]([C@H](O)C2CCCCC2)NC(=O)C12CCN(Cc1ccc(Oc3ccc(C(=O)O)cc3)cc1)CC2` ?
active

Okay, and `CCc1ccc(O)c(C(C)(C)C)c1` ?
inactive
